tested on: PC-3 prostate; assay: NCI-60 one-dose screen, 48 h (100 = growth as untreated, 0 = no growth, -100 = all killed); conditions: 10 µM
This is part of a sample that, as a whole, favours compounds with a hit. Of some 83,000 tested, about 20% had one in any assay.
# strict inequality: growth < 90% yields yes (1), everything else yields no (0)

Compound	Assigned label
O=C(Nc1ccc(OS(=O)(=O)Cc2ccccc2)cc1)C12CC3CC(CC(C3)C1)C2	yes (1)
O=C(CCc1ccccc1)N1CCN(C(=O)CCc2ccccc2)CC1	no (0)
COc1ccc(OC)c([N+](=O)[O-])c1C=O	no (0)
CCOC(=O)C(CCC1=NC(C)(C)CC(C)O1)C(=O)OCC (centres undefined)	yes (1)
COCCOC(=O)NC(=O)Nc1ccc(/C(=N/O)c2ccc(Cl)cc2)cc1	yes (1)
C=CCn1ccc(=O)nc1SC	no (0)
Cn1cnc([N+](=O)[O-])c1Sc1nnc(-c2ccccc2)c(-c2ccccc2)n1	no (0)
CC1(C)CNC(=O)N1	no (0)
O=C(O)c1cc(C(F)(F)F)cc(C(F)(F)F)c1	no (0)
COc1ccccc1S(=O)(=O)Nc1ccc2c(c1)CN(C)C(=O)N2	yes (1)
CCCCCCOc1ccc(/C=C/C(=O)c2ccc(B(O)O)cc2)cc1	yes (1)
N/C(=N\O)c1cn(C2OC(CO)C(O)C2O)c2ncnc(N)c12 (centres undefined)	yes (1)
c1ccc(CC(NCCNC(Cc2ccccc2)c2ccccc2)c2ccccc2)cc1 (centres undefined)	yes (1)
C=CCn1c(C)nc2cc(Nc3nc(Nc4ccc5nc(C)n(CC=C)c5c4)c4ccccc4n3)ccc21	yes (1)

====

test system: HT29 colon; assay: NCI-60 one-dose screen, 48 h (100 = growth as untreated, 0 = no growth, -100 = all killed); conditions: 10 µM
The panel holds about 83,000 compounds, 20% with a hit somewhere; the sample as a whole holds those more often.
# growth values compiled below

Compound	growth / %
O=C1/C(=C/c2ccc(O)cc2)CSc2ccc(Cl)cc21	69.3
Nc1c(C(=O)NC2CCCCC2)sc2nc3c(cc12)C(=O)CCC3	110
COc1ccc(/C=C2\SC(=S)N(CCCN3CCOCC3)C2=O)c(OC)c1	96.2
CC(=O)OC1Oc2ccccc2-c2oc(=O)c(-c3ccc(F)cc3)cc21 (stereo not drawn)	99
O=[N+]([O-])c1ccc(-c2nc(-c3ccccc3)c(-c3ccccc3)n2-c2ccccc2)cc1	16.1
CC(=O)Nc1nc(C)c(C(=O)N/N=C/c2cccn2C)s1	101
COc1ccc(C2=Cc3ccc(OC(C)=O)cc3OC2)cc1	97.2
COc1ccc(/C=C2\CCC3C(CCCC34OCCO4)C2=O)cc1 (stereo not drawn)	80.1
CCCN(CCC)CCCNC(=O)c1cc2c(-c3ccc(OC)c(OC)c3)nn(C)c2s1	56.5
CC(C)c1[nH]nc2c(NCc3ccc(-c4ccccn4)cc3)nc(SCCN)nc12	-24.2
c1ccc(CNc2nc(Nc3ccc(-c4nc5ccccc5[nH]4)cc3)c3cn[nH]c3n2)cc1	-13.9
NC(=O)c1ccc(Br)o1	95.7
CC1(C)CNC(=O)N1	94.6
CC(=O)n1nc(C(=O)OC(C)(C)C)c2cc(F)c(F)cc21	100
O=C(O)c1ccccc1C(=O)c1cccc2c(F)cccc12	115
COc1cc(CSc2nc3ccc(Cl)cc3c(=O)n2Cc2ccccc2)cc(OC)c1OC	11.7
CC(C)CCN(CCCNc1c2c(nc3cc(Cl)ccc13)CCCC2)CCC(C)C	23
O=C(Cn1ccc(=O)[nH]c1=O)c1ccc([N+](=O)[O-])o1	101
Clc1cc(Cl)c(OCCCCCCN2CCNCC2)c(Cl)c1	-34.1
COc1cc(/C=C2\C(=O)Nc3cc(C)c(O)cc32)cc(OC)c1OC	22.4
COc1cccc(-c2nnc(COc3ccc(-c4nc5ccccc5[nH]4)cc3OC)o2)c1	96.1
Cc1ccc2oc(=O)cc(/C(=C3/C=CC=N3)c3ccc[nH]3)c2c1	-36.6
CCCCn1c(=O)[nH]c2c(c1=O)C(c1ccc(Cl)cc1)c1c([nH]c(=O)n(CCCC)c1=O)N2	97.2
CN(C)c1ccc2c(c1)OC(N)=C(C#N)C2c1ccc2c(c1)CCO2 (stereo not drawn)	9
CC1(C)Cc2c(cn(Cc3ccccc3)c2-c2ccccc2)-c2oncc21	79.6
C[n+]1c(/C=C/c2c[nH]c3ccccc23)ccc2ccccc21	49.2
COc1ccc2oc(=O)cc(C(c3ccc[nH]3)c3ccc[nH]3)c2c1	-10.5
CCn1nc(-c2ccccn2)c2cccnc2c1=S	51.9
CN(C)Cc1cccs1	104
Cc1ccc(-c2cc(C(=O)Nc3ccc(S(=O)(=O)N4CCCCC4)cc3)[nH]n2)c(O)c1	2.87
O=C(N/N=C/c1ccccc1O)c1ccccc1	45.5
COc1cc(-c2n/c(=C\c3c(O)[nH]c4ccccc34)cc3c2=Nc2ccccc2-3)cc(OC)c1OC	4.2
COc1cc(-c2nc3ccc(C)cc3[nH]2)ccc1OCc1nnc(-c2ccc(CC(C)C)cc2)o1	73.3
C=CCN1C(=O)/C(=C\c2ccc3c(c2)CCC3)SC1=S	97.4
CCCCC(CC#N)(CCC)CCC	99
CC(C)OP(=O)(O)c1ncc(-c2ccc(C(F)(F)F)cc2)c(NC2CCCCCC2)n1	47.5
C(=C\c1nc2ccccc2s1)/c1ccc(N2CCOCC2)s1	45.1
Nc1ncc(-c2ccc(C(F)(F)F)cc2)c(NC2CCCCCC2)n1	31.5
Nc1ccc2c(c1)Cc1cc(N)c(Cl)cc1-2	101
Oc1[nH]c2ccccc2c1/C=c1/cc2c(c(-c3ccc(C(F)(F)F)cc3)n1)=Nc1ccccc1-2	20.2
Cc1cc(Nc2cccc(F)c2)nc(NCc2ccccc2)n1	22.8
CC(C)c1ncc(CO)n1Cc1c(Cl)cccc1Cl	99.4
CCOC(=O)c1cc2c(n1Cc1cccc(OC)c1)-c1oncc1CC2	4.06
